- tgt: huLTBP1 proTGFβ1 (Homo sapiens, UniProt P01137+Q14766)
- Sequence (P01137 30-390): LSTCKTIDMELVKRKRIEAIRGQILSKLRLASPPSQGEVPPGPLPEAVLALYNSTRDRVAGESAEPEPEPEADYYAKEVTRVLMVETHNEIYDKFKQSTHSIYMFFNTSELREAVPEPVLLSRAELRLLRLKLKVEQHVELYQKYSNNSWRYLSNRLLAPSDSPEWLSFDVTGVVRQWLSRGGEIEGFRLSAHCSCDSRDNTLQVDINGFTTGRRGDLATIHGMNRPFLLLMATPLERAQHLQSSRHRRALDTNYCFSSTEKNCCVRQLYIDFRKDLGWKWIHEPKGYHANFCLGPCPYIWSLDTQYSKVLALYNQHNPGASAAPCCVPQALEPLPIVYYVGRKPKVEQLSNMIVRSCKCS
- Sequence (Q14766 347-1721 limits assumed): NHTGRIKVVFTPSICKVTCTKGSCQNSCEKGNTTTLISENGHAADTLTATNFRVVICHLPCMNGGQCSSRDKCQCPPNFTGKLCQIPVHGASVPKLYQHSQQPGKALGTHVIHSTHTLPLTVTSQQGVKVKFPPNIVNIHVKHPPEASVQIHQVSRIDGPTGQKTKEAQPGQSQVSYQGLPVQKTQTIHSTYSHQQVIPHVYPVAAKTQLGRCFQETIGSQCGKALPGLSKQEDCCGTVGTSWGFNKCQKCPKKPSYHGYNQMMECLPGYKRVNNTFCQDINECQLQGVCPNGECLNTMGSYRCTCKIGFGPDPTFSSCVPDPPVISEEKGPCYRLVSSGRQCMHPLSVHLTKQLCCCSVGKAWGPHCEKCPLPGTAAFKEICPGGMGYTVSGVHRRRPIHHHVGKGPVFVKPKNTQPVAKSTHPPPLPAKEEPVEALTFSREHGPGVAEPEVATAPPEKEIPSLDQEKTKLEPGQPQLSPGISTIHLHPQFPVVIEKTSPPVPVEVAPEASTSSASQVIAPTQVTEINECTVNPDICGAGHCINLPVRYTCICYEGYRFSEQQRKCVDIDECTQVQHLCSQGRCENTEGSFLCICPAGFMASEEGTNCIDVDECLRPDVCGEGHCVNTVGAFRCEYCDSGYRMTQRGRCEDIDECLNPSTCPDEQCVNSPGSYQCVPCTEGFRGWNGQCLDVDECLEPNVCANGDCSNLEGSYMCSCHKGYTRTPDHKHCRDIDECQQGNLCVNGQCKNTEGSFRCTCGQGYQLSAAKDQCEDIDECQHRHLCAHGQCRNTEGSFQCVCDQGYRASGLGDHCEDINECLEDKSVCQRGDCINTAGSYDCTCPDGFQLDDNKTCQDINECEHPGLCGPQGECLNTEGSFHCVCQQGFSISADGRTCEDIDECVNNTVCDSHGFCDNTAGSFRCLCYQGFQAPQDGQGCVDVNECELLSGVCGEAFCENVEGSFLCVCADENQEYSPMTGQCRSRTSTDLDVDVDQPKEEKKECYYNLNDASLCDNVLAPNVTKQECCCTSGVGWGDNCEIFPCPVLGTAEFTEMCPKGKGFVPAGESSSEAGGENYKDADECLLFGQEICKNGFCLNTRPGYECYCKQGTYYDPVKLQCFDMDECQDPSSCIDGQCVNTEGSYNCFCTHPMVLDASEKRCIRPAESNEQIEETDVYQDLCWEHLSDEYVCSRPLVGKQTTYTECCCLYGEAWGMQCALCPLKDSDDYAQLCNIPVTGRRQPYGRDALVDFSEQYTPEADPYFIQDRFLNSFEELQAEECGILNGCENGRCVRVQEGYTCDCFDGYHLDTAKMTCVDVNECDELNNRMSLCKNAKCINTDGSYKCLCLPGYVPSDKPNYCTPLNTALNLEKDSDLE
- method_summary: SPR (Biacore 8K) monovalent binding kinetics of Fabs, biotinylated antigen captured
- Set-up: biotin (complex biotinylated)
- condition_description: Fab, huLTBP1 proTGFβ1; SR-AB42-HuFab average of five, SR-AB63-HuFab average of four replicate experiments
property_measured: ka (M⁻¹ s⁻¹)
Report as a plain number; the unit M⁻¹ s⁻¹ is understood.

Asked: What value of ka has been recorded for this entry: SR-AB51-HuFab (antibody, V domains shown) VH: QVQLVESGGGVVQPGRSLRLSCAASGFTFRSYVMHWVRQAPGKGLEWVAVISHEGSGKYYADSVKGRFTISRDNSKNTLYLQMNSLRAEDTAVYYCARPRIAARRGGFGTWGQGTLVTVSS VL: NFMLTQPHSVSESPGKTVTISCTRSSGNIDYNYVQWYQQRPGSSPTTVIYEDNVRPSGVPDRFSGSIDSSSNSASLTISGLKTEDEADYYCQSYDYDNQAVVFGGGTKLTVL
Given back: 2.55e+06

Asked: May I ask what ka has been recorded for SR-AB54-HuFab (antibody, V domains shown) VH: QVQLVESGGGVVQPGRSLRLSCAASGFTFRSYVMHWVRQAPGKGLEWVAVISHEGSGKYYADSVKGRFTISRDNSKNTLYLQMNSLRAEDTAVYYCALPRIAARRGGFGSWGQGTLVTVSS VL: NFMLTQPHSVSESPGKTVTISCTRSSGNIDYNYVQWYQQRPGSSPTTVIYEDNVRPSGVPDRFSGSIDSSSNSASLTISGLKTEDEADYYCQSYDSDNQRVVFGGGTKLTVL ?
Given back: 1.8e+06

Asked: Entry under review: SR-AB56-HuFab (antibody, V domains shown) VH: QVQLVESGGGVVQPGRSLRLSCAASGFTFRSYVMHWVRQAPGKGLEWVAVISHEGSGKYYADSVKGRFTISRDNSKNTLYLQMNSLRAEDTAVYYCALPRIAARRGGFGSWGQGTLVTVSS VL: NFMLTQPHSVSESPGKTVTISCTRSSGNIDYNYVQWYQQRPGSSPTTVIYEDNVRPSGVPDRFSGSIDSSSNSASLTISGLKTEDEADYYCQSYDYDTQGVVFGGGTKLTVL . Reported ka?
Given back: 2.58e+06

Asked: Bench note: what ka did SR-AB58-HuFab (antibody, V domains shown) VH: QVQLVESGGGVVQPGRSLRLSCAASGFTFRSYVMHWVRQAPGKGLEWVAVISHEGSGKYYADSVKGRFTISRDNSKNTLYLQMNSLRAEDTAVYYCALPRIAARRGGFGTWGQGTLVTVSS VL: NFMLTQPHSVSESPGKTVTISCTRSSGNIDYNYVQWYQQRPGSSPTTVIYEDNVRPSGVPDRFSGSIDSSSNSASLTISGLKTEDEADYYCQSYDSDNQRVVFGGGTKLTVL show?
Given back: 3.11e+06

Asked: Consider the molecule SR-AB60-HuFab (antibody, V domains shown) VH: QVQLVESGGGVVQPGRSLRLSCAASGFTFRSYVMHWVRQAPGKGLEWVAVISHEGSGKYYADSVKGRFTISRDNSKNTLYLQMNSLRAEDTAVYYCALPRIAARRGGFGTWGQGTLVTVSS VL: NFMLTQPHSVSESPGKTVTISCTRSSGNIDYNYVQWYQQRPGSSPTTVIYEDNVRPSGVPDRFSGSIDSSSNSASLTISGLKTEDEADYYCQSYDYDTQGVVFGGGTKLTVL and give its measured ka.
Given back: 2.35e+06

Hey, just so you know, these numbers are from patent US11214614B2.
